assay: RP, Thermo Scientific Acclaim RSLC 120 C18, 100 × 2.1 mm, 2.2 µm, 30 °C, 0.2 mL/min, estimated dead time 1.1 min; A: 90% water + 10% methanol + 0.01% formic acid + 5 mM ammonium formate, pH 3.61; B: methanol + 0.01% formic acid + 5 mM ammonium formate, pH 3.61; gradient (min/%B) 0/1 1/1 2/39 13/99.9 15/99.9 15.1/1 20.1/1; conditions: stereoisomer not certain
Consider the cut-off 8 min. If the recorded LC retention time is strictly smaller, the label is YES; if not, the label is NO.

Study these solved cases before continuing.
Molecule: O=C(O)CCC(=O)c1ccc(F)cc1 [4-Fluorobenzoylpropionic acid]
Qualitative label: YES
//
Molecule: O=C(c1ccccc1)c1ccc2n1CCC2C(=O)O (stereo unspecified) [Ketorolac]
Qualitative label: YES
//
Molecule: CNC(CC(C)C)C1(c2ccc(Cl)cc2)CCC1 (stereo unspecified) [Sibutramine-Nor]
Qualitative label: NO
//
Molecule: CCNc1nc(NCC)[nH]c(=O)n1 [Simazine-2-hydroxy]
Qualitative label: YES
//
Molecule: CC1CC2C3CCC4=CC(=O)C=CC4(C)C3(Cl)C(O)CC2(C)C1(OC(=O)c1ccco1)C(=O)CCl (stereo unspecified) [Mometasone fuorate]
Qualitative label: NO

query: Bench note: check whether CCN(CC)C(=O)N1CCN(C)CC1 [Carbamazine-Diethyl] shows LC retention time below 8 min
result: YES

query: Bench note: check whether CCCCCn1cc(C(=O)Nc2ccccc2)c2ccccc21 [SDB-006 N-phenyl] shows LC retention time below 8 min
result: NO

query: Bench note: check whether COc1cc(OC)nc(NC(=O)NS(=O)(=O)c2ncccc2C(=O)N(C)C)n1 [Nicosulfuron] shows LC retention time below 8 min
result: YES

query: Bench note: check whether NC(=O)CS(=O)C(c1ccccc1)c1ccccc1 (stereo unspecified) [Modafinil] shows LC retention time below 8 min
result: YES

query: Bench note: check whether CC(C)(C)C(O)C(Cc1ccc(Cl)cc1)n1cncn1 (stereo unspecified) [Paclobutrazole] shows LC retention time below 8 min
result: NO

Value source: the RepoRT retention time repository (doi:10.1021/acs.analchem.2c02893)
